Overview of recorded pIC50 for various compounds
Test system: 782815-120-R-J1-PDC complex spheroid viability
assayInfo: Anticancer human tumor 782815-120-R-J1-PDC patient-derived colon adenocarcinoma cell line growth inhibition [RAS]
assaySetup: curve of first compound; second compound 0.000949 µM
pIC50: −log10 of the molar value.
readoutType: pIC50

>>> observedvalue("O=C(c1ccc(F)c(F)c1Nc1ccc(I)cc1F)N1CC(O)([C@@H]2CCCCN2)C1 + CCn1c(-c2cccnc2C(C)OC)c2c3cc(ccc31)N1CCOC(CC(NC(=O)C(C(C)C)N(C)C(=O)C3(F)CCN(C(=O)C#CC(C)(C)N(C)C)CC3)C(=O)N3CCCC(N3)C(=O)OCC(C)(C)C2)C1")
7.32
>>> observedvalue("CC1(C)CCC(Nc2ncc(C(F)(F)F)c(-c3c[nH]c4c(P(C)(C)=O)c(C#N)ccc34)n2)CN1 (centres undefined) + CCn1c(-c2cccnc2C(C)OC)c2c3cc(ccc31)N1CCOC(CC(NC(=O)C(C(C)C)N(C)C(=O)C3(F)CCN(C(=O)C#CC(C)(C)N(C)C)CC3)C(=O)N3CCCC(N3)C(=O)OCC(C)(C)C2)C1")
7.37
>>> observedvalue("CC1(O)CCCC1n1c(=O)c(C(F)F)cc2cnc(NC3CCN(S(C)(=O)=O)CC3)nc21 (centres undefined) + CCn1c(-c2cc(N3CCN(C)CC3)cnc2C(C)OC)c2c3cc(ccc31)-c1csc(n1)CC(NC(=O)C1CC1C)C(=O)N1CCCC(N1)C(=O)OCC(C)(C)C2")
5.48

###

Tested on: 782815-120-R-J1-PDC complex spheroid viability
assayInfo: Anticancer human tumor 782815-120-R-J1-PDC cell line growth inhibition [RAS];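 also: spheroids exposed to compounds for 7 days before reading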;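 as to viability, T/C: 100% = DMSO vehicle control viability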
assaySetup: second compound 0.03 µM; first compound 0.0316 µM; stronger effect = lower value
Overview of recorded viability, T/C for various compounds
readoutType: viability, T/C (%)

>>> observedvalue("C=CC(=O)Nc1cc(Nc2nccc(-c3cn(C)c4ccccc34)n2)c(OC)cc1N(C)CCN(C)C + CCn1c(-c2cc(N3CCN(C)CC3)cnc2C(C)OC)c2c3cc(ccc31)-c1csc(n1)CC(NC(=O)C1CC1C)C(=O)N1CCCC(N1)C(=O)OCC(C)(C)C2")
18.6
>>> observedvalue("O=C(c1ccc(F)c(F)c1Nc1ccc(I)cc1F)N1CC(O)([C@@H]2CCCCN2)C1 + CCn1c(-c2cccnc2C(C)OC)c2c3cc(ccc31)N1CCOC(CC(NC(=O)C(C(C)C)N(C)C(=O)C3(F)CCN(C(=O)C#CC(C)(C)N(C)C)CC3)C(=O)N3CCCC(N3)C(=O)OCC(C)(C)C2)C1")
55.3
>>> observedvalue("CC(Nc1ccc2c(c1)OCCn1cc(N3C(=O)OCC3C(F)F)nc1-2)C(N)=O (centres undefined) + CCn1c(-c2cc(N3CCN(C)CC3)cnc2C(C)OC)c2c3cc(ccc31)-c1csc(n1)CC(NC(=O)C1CC1C)C(=O)N1CCCC(N1)C(=O)OCC(C)(C)C2")
19.8
>>> observedvalue("CC1(O)CCCC1n1c(=O)c(C(F)F)cc2cnc(NC3CCN(S(C)(=O)=O)CC3)nc21 (centres undefined) + CCn1c(-c2cccnc2C(C)OC)c2c3cc(ccc31)N1CCOC(CC(NC(=O)C(C(C)C)N(C)C(=O)C3(F)CCN(C(=O)C#CC(C)(C)N(C)C)CC3)C(=O)N3CCCC(N3)C(=O)OCC(C)(C)C2)C1")
69.3

###

Overview of recorded viability, T/C for various compounds
Tested on: 782815-120-R-J1-PDC complex spheroid viability
assayInfo: Anticancer human tumor 782815-120-R-J1-PDC cell line growth inhibition [RAS];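 also: spheroids exposed to compounds for 7 days before reading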;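 as to viability, T/C: 100% = DMSO vehicle control viability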
assaySetup: second compound 0.0949 µM; first compound 10 µM; stronger effect = lower value
readoutType: viability, T/C (%)

>>> observedvalue("NC1c2ccccc2OC12CCN(c1cnc3c(N4CCCc5ncccc54)n[nH]c3n1)CC2 (stereo not drawn) + CCn1c(-c2cc(N3CCN(C)CC3)cnc2C(C)OC)c2c3cc(ccc31)-c1csc(n1)CC(NC(=O)C1CC1C)C(=O)N1CCCC(N1)C(=O)OCC(C)(C)C2")
13.6
>>> observedvalue("CC(C)NCC(C(=O)N1CCN(c2ncnc3c2C(C)CC3O)CC1)c1ccc(Cl)cc1 (stereo not drawn) + CCn1c(-c2cc(N3CCN(C)CC3)cnc2C(C)OC)c2c3cc(ccc31)-c1csc(n1)CC(NC(=O)C1CC1C)C(=O)N1CCCC(N1)C(=O)OCC(C)(C)C2")
11
>>> observedvalue("CC(Nc1ccc2c(c1)OCCn1cc(N3C(=O)OCC3C(F)F)nc1-2)C(N)=O (stereo not drawn) + CCn1c(-c2cccnc2C(C)OC)c2c3cc(ccc31)N1CCOC(CC(NC(=O)C(C(C)C)N(C)C(=O)C3(F)CCN(C(=O)C#CC(C)(C)N(C)C)CC3)C(=O)N3CCCC(N3)C(=O)OCC(C)(C)C2)C1")
94.8
>>> observedvalue("CC(Nc1ccc2c(c1)OCCn1cc(N3C(=O)OCC3C(F)F)nc1-2)C(N)=O (stereo not drawn) + CCn1c(-c2cc(N3CCN(C)CC3)cnc2C(C)OC)c2c3cc(ccc31)-c1csc(n1)CC(NC(=O)C1CC1C)C(=O)N1CCCC(N1)C(=O)OCC(C)(C)C2")
11.9
>>> observedvalue("NC1c2ccccc2OC12CCN(c1cnc3c(N4CCCc5ncccc54)n[nH]c3n1)CC2 (stereo not drawn) + CCn1c(-c2cccnc2C(C)OC)c2c3cc(ccc31)N1CCOC(CC(NC(=O)C(C(C)C)N(C)C(=O)C3(F)CCN(C(=O)C#CC(C)(C)N(C)C)CC3)C(=O)N3CCCC(N3)C(=O)OCC(C)(C)C2)C1")
76.5
>>> observedvalue("Cc1nc(N2CCC3(CC2)COC(C)C3N)c(CO)nc1Sc1ccnc(N)c1Cl (stereo not drawn) + CCn1c(-c2cccnc2C(C)OC)c2c3cc(ccc31)N1CCOC(CC(NC(=O)C(C(C)C)N(C)C(=O)C3(F)CCN(C(=O)C#CC(C)(C)N(C)C)CC3)C(=O)N3CCCC(N3)C(=O)OCC(C)(C)C2)C1")
90.1
>>> observedvalue("CC(C)NCC(C(=O)N1CCN(c2ncnc3c2C(C)CC3O)CC1)c1ccc(Cl)cc1 (stereo not drawn) + CCn1c(-c2cccnc2C(C)OC)c2c3cc(ccc31)N1CCOC(CC(NC(=O)C(C(C)C)N(C)C(=O)C3(F)CCN(C(=O)C#CC(C)(C)N(C)C)CC3)C(=O)N3CCCC(N3)C(=O)OCC(C)(C)C2)C1")
101
>>> observedvalue("CCC(CC)c1cc(NC2CCC(N)C2)n2nccc2n1 (stereo not drawn) + CCn1c(-c2cc(N3CCN(C)CC3)cnc2C(C)OC)c2c3cc(ccc31)-c1csc(n1)CC(NC(=O)C1CC1C)C(=O)N1CCCC(N1)C(=O)OCC(C)(C)C2")
1.31
>>> observedvalue("Cc1nc(N2CCC3(CC2)COC(C)C3N)c(CO)nc1Sc1ccnc(N)c1Cl (stereo not drawn) + CCn1c(-c2cc(N3CCN(C)CC3)cnc2C(C)OC)c2c3cc(ccc31)-c1csc(n1)CC(NC(=O)C1CC1C)C(=O)N1CCCC(N1)C(=O)OCC(C)(C)C2")
15.4
>>> observedvalue("CC1(O)CCCC1n1c(=O)c(C(F)F)cc2cnc(NC3CCN(S(C)(=O)=O)CC3)nc21 (stereo not drawn) + CCn1c(-c2cccnc2C(C)OC)c2c3cc(ccc31)N1CCOC(CC(NC(=O)C(C(C)C)N(C)C(=O)C3(F)CCN(C(=O)C#CC(C)(C)N(C)C)CC3)C(=O)N3CCCC(N3)C(=O)OCC(C)(C)C2)C1")
22
>>> observedvalue("C[C@@H](NC(=O)c1ncnc(N)c1Cl)c1ncc(C(=O)Nc2cc(C(F)(F)F)c(Cl)cn2)s1 + CCn1c(-c2cccnc2C(C)OC)c2c3cc(ccc31)N1CCOC(CC(NC(=O)C(C(C)C)N(C)C(=O)C3(F)CCN(C(=O)C#CC(C)(C)N(C)C)CC3)C(=O)N3CCCC(N3)C(=O)OCC(C)(C)C2)C1")
49.4
>>> observedvalue("C[C@@H](NC(=O)c1ncnc(N)c1Cl)c1ncc(C(=O)Nc2cc(C(F)(F)F)c(Cl)cn2)s1 + CCn1c(-c2cc(N3CCN(C)CC3)cnc2C(C)OC)c2c3cc(ccc31)-c1csc(n1)CC(NC(=O)C1CC1C)C(=O)N1CCCC(N1)C(=O)OCC(C)(C)C2")
27.6
>>> observedvalue("CCC(CC)c1cc(NC2CCC(N)C2)n2nccc2n1 (stereo not drawn) + CCn1c(-c2cccnc2C(C)OC)c2c3cc(ccc31)N1CCOC(CC(NC(=O)C(C(C)C)N(C)C(=O)C3(F)CCN(C(=O)C#CC(C)(C)N(C)C)CC3)C(=O)N3CCCC(N3)C(=O)OCC(C)(C)C2)C1")
2.54

###

System: 782815-120-R-J1-PDC complex spheroid viability
assayInfo: Anticancer human tumor 782815-120-R-J1-PDC cell line growth inhibition [RAS]; active means viability on the fitted dose curve at most 10% of control; inactive means the rest;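 also: spheroids exposed to compounds for 7 days before reading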
assaySetup: second compound 0.000949 µM; first compound 10 µM
Classes used: 1.0 (active), 0.0 (inactive)

>>> assignedlabel("Cc1nc(N2CCC3(CC2)COC(C)C3N)c(CO)nc1Sc1ccnc(N)c1Cl (centres undefined) + CCn1c(-c2cccnc2C(C)OC)c2c3cc(ccc31)N1CCOC(CC(NC(=O)C(C(C)C)N(C)C(=O)C3(F)CCN(C(=O)C#CC(C)(C)N(C)C)CC3)C(=O)N3CCCC(N3)C(=O)OCC(C)(C)C2)C1")
0.0
>>> assignedlabel("CC(=O)OC12COC1CC(O)C1(C)C(=O)C(O)C3=C(C)C(OC(=O)C(O)C(NC(=O)OC(C)(C)C)c4ccccc4)CC(O)(C(OC(=O)c4ccccc4)C21)C3(C)C (centres undefined) + CCn1c(-c2cccnc2C(C)OC)c2c3cc(ccc31)N1CCOC(CC(NC(=O)C(C(C)C)N(C)C(=O)C3(F)CCN(C(=O)C#CC(C)(C)N(C)C)CC3)C(=O)N3CCCC(N3)C(=O)OCC(C)(C)C2)C1")
0.0
>>> assignedlabel("CC(Nc1ccc2c(c1)OCCn1cc(N3C(=O)OCC3C(F)F)nc1-2)C(N)=O (centres undefined) + CCn1c(-c2cccnc2C(C)OC)c2c3cc(ccc31)N1CCOC(CC(NC(=O)C(C(C)C)N(C)C(=O)C3(F)CCN(C(=O)C#CC(C)(C)N(C)C)CC3)C(=O)N3CCCC(N3)C(=O)OCC(C)(C)C2)C1")
0.0
>>> assignedlabel("CCC(CC)c1cc(NC2CCC(N)C2)n2nccc2n1 (centres undefined) + CCn1c(-c2cccnc2C(C)OC)c2c3cc(ccc31)N1CCOC(CC(NC(=O)C(C(C)C)N(C)C(=O)C3(F)CCN(C(=O)C#CC(C)(C)N(C)C)CC3)C(=O)N3CCCC(N3)C(=O)OCC(C)(C)C2)C1")
1.0
